RECORDED METRIC: melting point

| STRUCTURE AS SMILES | RESULT |
| --- | --- |
| Cc1cc(C#N)ccc1N1CCOCC1 | 85 to 86 °C |
| COc1cc(Br)c(C=O)cc1OCc1ccccc1 | 140 to 141 °C |
| CCOC(=O)c1cccc2[nH]c(=O)oc(=O)c12 | 188 to 190 °C |
| CC(=O)Nc1cc(C(=O)O)ccc1C(F)(F)F | 195 to 197 °C |

====

Each record here notes measured melting point.

| MOLECULE | melting point |
| --- | --- |
| CS(=O)(=O)Nc1cc2c(cc1Oc1ccccc1)C(=O)C(Br)CO2 (configuration not stated) | 137 to 140 °C |
| Cc1cc(C)cc(C(=O)N2CCN(C(=O)CN(CCO)C3CCN(Cc4ccccc4)CC3)C(c3ccc(Cl)c(Cl)c3)C2)c1 (racemic) | 70 to 73 °C |
| CCCc1nc2c(N)nc3cc(-c4ccccc4)ccc3c2n1CCCC(C)=O | 202 to 204 °C |
| Nc1nc(N2CCN(CCCC3(c4ccc(F)cc4)OCCO3)CC2)ccc1[N+](=O)[O-] | 117 to 118 °C |
| COc1ccc(C=NNC(=N)N)cc1OC1CCCC1 | 100 to 103 °C |
| Cn1cc(-c2cc(-c3cnc4[nH]ccc4c3)ccn2)n(-c2ccc(N3CCNCC3)c(C(F)(F)F)c2)c1=O | 163 °C |
| COc1cccc2c1CCCC2(O)CN (configuration not stated) | 129 to 130 °C |
| Cc1cc(NC(=O)NC(=O)c2c(Cl)cccc2Cl)nc(C)c1-c1ccccc1 | 230 to 235 °C |
| Cn1c2ccccc2c2sccc(=O)c21 | 113 to 114 °C |
| Cc1ccccc1-c1c(NC(=O)OC(C)(C)C)c(=O)oc2cc3c(cc12)CCC3 | 154 to 155 °C |
| C=CCCC(C#N)(C#N)Cc1ccc(OC(F)(F)Br)cc1 | 50.2 °C |
| COc1cc2c(Nc3ccc(Cl)cc3F)c(C#N)cnc2c(OC)c1OC | 166 to 168 °C |
| CCOC(=O)CCCOc1cccc(Oc2nc(OC)cc(OC)n2)c1C=NNc1ccc(Cl)cc1 | 139 °C |
| NSc1nccnc1Cl | 113 to 114 °C |
| O=C1Nc2cc(Cl)ccc2Sc2cscc21 | 267 to 269 °C |
| COc1ccc(C=CC(=O)O)cc1-c1cc2c(cc1OCCCCCC(=O)O)C(C)(C)CCC2(C)C | 166 to 168 °C |
| C=Cn1c(=O)c(C#N)c(N2CCN(C(=O)c3cccs3)CC2)c2cccnc21 | 228 °C |
